compounds and their reported inhibition at 1 µM
# TARGET SYSTEM: Human JAK1 (Homo sapiens, UniProt P23458)
# Construct: purchased Millipore, Germany
# Sequence (P23458 whole entry): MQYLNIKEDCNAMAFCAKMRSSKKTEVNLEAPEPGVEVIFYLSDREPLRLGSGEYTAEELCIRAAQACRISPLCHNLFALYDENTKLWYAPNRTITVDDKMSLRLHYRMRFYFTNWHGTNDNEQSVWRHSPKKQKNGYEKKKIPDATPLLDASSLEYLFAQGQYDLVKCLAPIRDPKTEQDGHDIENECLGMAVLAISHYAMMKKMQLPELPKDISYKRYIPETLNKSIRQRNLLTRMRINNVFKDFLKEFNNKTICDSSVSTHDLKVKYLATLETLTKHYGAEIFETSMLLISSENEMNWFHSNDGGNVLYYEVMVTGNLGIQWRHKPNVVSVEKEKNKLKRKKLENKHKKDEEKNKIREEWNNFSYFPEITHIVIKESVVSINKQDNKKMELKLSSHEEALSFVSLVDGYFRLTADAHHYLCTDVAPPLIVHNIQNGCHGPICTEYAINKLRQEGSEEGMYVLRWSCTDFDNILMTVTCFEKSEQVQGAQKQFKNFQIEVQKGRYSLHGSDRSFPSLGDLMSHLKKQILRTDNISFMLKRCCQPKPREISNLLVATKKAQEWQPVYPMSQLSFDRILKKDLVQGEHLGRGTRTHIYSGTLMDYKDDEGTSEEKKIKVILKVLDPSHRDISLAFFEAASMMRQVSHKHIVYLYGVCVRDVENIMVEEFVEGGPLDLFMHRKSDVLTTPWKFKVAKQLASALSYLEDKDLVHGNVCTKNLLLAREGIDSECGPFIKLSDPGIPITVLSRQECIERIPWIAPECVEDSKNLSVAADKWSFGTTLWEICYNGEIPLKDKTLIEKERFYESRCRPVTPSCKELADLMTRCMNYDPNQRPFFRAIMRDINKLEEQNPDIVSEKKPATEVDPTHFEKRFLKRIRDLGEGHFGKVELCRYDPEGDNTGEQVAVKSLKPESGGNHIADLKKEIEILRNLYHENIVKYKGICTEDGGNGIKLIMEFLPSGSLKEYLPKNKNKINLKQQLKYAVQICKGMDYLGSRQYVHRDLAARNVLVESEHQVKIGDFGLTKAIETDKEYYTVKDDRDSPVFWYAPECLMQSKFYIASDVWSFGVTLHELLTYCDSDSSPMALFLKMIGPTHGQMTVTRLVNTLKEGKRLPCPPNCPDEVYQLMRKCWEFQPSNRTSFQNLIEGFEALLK
# PROTOCOL SUMMARY: In-vitro kinase inhibition test, JAK1
# Type: biochemical
# RUN PARAMETERS: compound at 1 uM; read-out: JAK1 kinase-phosphorylation inhibitory level (% inhibition)

stdin: Write down inhibition at 1 µM measured for item CN(c1ncnc2[nH]ccc12)C1CCN(C(=O)CC#N)CC1 [Example 37]
stdout: 49%

stdin: Write down inhibition at 1 µM measured for item CN(c1ncnc2[nH]ccc12)[C@@H]1CCN(CCC#N)C1 [Example 2]
stdout: 91%

stdin: Write down inhibition at 1 µM measured for item CN(c1ncnc2[nH]ccc12)[C@@H]1CCN(S(=O)(=O)c2cn(C)cn2)C1 [Example 13]
stdout: 52%

stdin: Write down inhibition at 1 µM measured for item CN(c1ncnc2[nH]ccc12)[C@H]1CN(C(=O)CC#N)CC1(C)C [Example 43]
stdout: 86%

stdin: Write down inhibition at 1 µM measured for item N#Cc1cccc(S(=O)(=O)N2CCCC(COc3ncnc4[nH]ccc34)C2)c1 (centres unmarked) [Example 48]
stdout: 25%

* * *

# PROTOCOL SUMMARY: Pharmacokinetic test, oral or intravenous administration
# Format: in vivo
# RUN PARAMETERS: mouse, blood; oral administration, 20 mg/kg, mice
RESULT TYPE: bioavailability (%)
Express your answer in %, writing the number without its unit.

stdin: Write down bioavailability measured for item `CN(c1ncnc2[nH]ccc12)[C@@H]1CCN(C(=O)CC#N)C1.Cl`
stdout: 69.1

* * *

molecules and their reported inhibition at 1 µM
# TARGET SYSTEM: Human TYK2 (Homo sapiens)
# Construct: purchased Millipore, Germany
# Sequence (P29597 whole entry): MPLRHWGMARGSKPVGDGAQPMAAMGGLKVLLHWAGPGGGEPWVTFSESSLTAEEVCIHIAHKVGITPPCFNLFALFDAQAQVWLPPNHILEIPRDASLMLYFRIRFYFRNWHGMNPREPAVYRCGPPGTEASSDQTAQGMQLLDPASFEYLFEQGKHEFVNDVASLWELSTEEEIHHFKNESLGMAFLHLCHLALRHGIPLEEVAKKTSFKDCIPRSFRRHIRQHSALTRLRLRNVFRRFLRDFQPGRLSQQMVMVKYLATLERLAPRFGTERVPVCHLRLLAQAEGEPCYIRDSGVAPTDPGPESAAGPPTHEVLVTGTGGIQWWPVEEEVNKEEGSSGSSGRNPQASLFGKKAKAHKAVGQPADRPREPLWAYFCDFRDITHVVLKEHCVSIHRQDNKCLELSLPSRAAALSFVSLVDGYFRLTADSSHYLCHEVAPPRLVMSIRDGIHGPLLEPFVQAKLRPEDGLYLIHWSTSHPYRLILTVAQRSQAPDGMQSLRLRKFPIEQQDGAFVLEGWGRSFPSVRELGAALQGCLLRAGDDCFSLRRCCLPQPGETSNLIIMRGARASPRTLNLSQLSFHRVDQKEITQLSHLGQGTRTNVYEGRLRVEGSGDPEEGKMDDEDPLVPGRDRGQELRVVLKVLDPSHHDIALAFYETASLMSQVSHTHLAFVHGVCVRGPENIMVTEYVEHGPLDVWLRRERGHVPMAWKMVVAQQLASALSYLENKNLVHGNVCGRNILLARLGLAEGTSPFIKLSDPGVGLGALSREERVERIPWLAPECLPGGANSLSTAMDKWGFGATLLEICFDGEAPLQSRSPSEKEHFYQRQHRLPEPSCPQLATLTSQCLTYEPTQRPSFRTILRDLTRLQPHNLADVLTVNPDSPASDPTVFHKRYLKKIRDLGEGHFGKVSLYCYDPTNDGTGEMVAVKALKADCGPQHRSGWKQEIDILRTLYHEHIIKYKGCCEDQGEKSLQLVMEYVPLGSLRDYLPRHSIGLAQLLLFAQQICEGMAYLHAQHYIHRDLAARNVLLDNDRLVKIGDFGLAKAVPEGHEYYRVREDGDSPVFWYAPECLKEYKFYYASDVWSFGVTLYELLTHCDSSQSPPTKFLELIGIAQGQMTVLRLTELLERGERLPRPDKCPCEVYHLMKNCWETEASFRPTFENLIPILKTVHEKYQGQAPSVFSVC
# PROTOCOL SUMMARY: In-vitro kinase inhibition test, TYK2
# Type: biochemical
# RUN PARAMETERS: compound at 1 uM; read-out: TYK2 kinase-phosphorylation inhibitory level (% inhibition)
Reply with the number, then its unit.

Recorded inhibition at 1 µM, per entry:
[
  {
    "MOLECULE": "Cc1ccc(S(=O)(=O)N2CC[C@@H](N(C)c3ncnc4[nH]ccc34)C2)cc1",
    "RESULT": "68%"
  },
  {
    "MOLECULE": "N#Cc1cccc(S(=O)(=O)N2CC[C@@H](Nc3ncnc4[nH]ccc34)C2)c1",
    "RESULT": "30%"
  },
  {
    "MOLECULE": "CN(c1ncnc2[nH]ccc12)[C@@H]1CCN(S(=O)(=O)c2cccc(C#N)c2)C1",
    "RESULT": "95%"
  }
]

stdin: Look up and report measured inhibition at 1 µM (Human TYK2 (Homo sapiens)) for the following molecule: `CCN(c1ncnc2[nH]ccc12)[C@@H]1CCN(S(=O)(=O)c2cccc(C#N)c2)C1`
stdout: 92%

stdin: Look up and report measured inhibition at 1 µM (Human TYK2 (Homo sapiens)) for the following molecule: `CN(c1ncnc2[nH]ccc12)[C@@H]1CCN(C(=O)Nc2ccccc2)C1`
stdout: 72%

stdin: Look up and report measured inhibition at 1 µM (Human TYK2 (Homo sapiens)) for the following molecule: N#Cc1cccc(S(=O)(=O)N2CCCC(COc3ncnc4[nH]ccc34)C2)c1 (centres unmarked)
stdout: 7%

stdin: Look up and report measured inhibition at 1 µM (Human TYK2 (Homo sapiens)) for the following molecule: `C[C@@H]1CCN(S(=O)(=O)c2cccc(C#N)c2)C[C@@H]1N(C)c1ncnc2[nH]ccc12`
stdout: 86%

stdin: Look up and report measured inhibition at 1 µM (Human TYK2 (Homo sapiens)) for the following molecule: `CN(c1ncnc2[nH]ccc12)[C@@H]1CCN(S(=O)(=O)c2ccccc2)C1`
stdout: 91%

* * *

molecules and their reported inhibition at 1 µM
# TARGET SYSTEM: Human JAK1 (Homo sapiens, UniProt P23458)
# Construct: purchased Millipore, Germany
# PROTOCOL SUMMARY: In-vitro kinase inhibition test, JAK1
# Type: biochemical
# RUN PARAMETERS: compound at 1 uM; read-out: JAK1 kinase-phosphorylation inhibitory level (% inhibition)
Express your answer in %, writing the number without its unit.

Recorded inhibition at 1 µM, per entry:
[
  {
    "MOLECULE": "CN(c1ncnc2[nH]ccc12)[C@@H]1CCN(S(=O)(=O)c2cccc([N+](=O)[O-])c2)C1 [Example 22]",
    "TARGET SYSTEM": "Human JAK1 (Homo sapiens, UniProt P23458)",
    "RESULT TYPE": "inhibition at 1 µM",
    "QUANTITATIVE RESULT": 100
  },
  {
    "MOLECULE": "CN(c1ncnc2[nH]ccc12)C1CCN(S(=O)(=O)c2ccccc2)CC1 [Example 38]",
    "TARGET SYSTEM": "Human JAK1 (Homo sapiens, UniProt P23458)",
    "RESULT TYPE": "inhibition at 1 µM",
    "QUANTITATIVE RESULT": 97
  },
  {
    "MOLECULE": "CCN(c1ncnc2[nH]ccc12)[C@@H]1CCN(C(=O)CC#N)C1 [Example 33]",
    "TARGET SYSTEM": "Human JAK1 (Homo sapiens, UniProt P23458)",
    "RESULT TYPE": "inhibition at 1 µM",
    "QUANTITATIVE RESULT": 97
  },
  {
    "MOLECULE": "CN(c1ncnc2[nH]ccc12)[C@@H]1CCN(S(=O)(=O)c2ccc(C(F)(F)F)cc2)C1 [Example 27]",
    "TARGET SYSTEM": "Human JAK1 (Homo sapiens, UniProt P23458)",
    "RESULT TYPE": "inhibition at 1 µM",
    "QUANTITATIVE RESULT": 96
  },
  {
    "MOLECULE": "CN(c1ncnc2[nH]ccc12)C1CCN(S(=O)(=O)c2cccc(C#N)c2)CC1 [Example 39]",
    "TARGET SYSTEM": "Human JAK1 (Homo sapiens, UniProt P23458)",
    "RESULT TYPE": "inhibition at 1 µM",
    "QUANTITATIVE RESULT": 87
  },
  {
    "MOLECULE": "CN(c1ncnc2[nH]ccc12)[C@H]1CCN(C(=O)CC#N)C1 [Example 31]",
    "TARGET SYSTEM": "Human JAK1 (Homo sapiens, UniProt P23458)",
    "RESULT TYPE": "inhibition at 1 µM",
    "QUANTITATIVE RESULT": 23
  },
  {
    "MOLECULE": "CN(c1ncnc2[nH]ccc12)[C@@H]1CCN(S(=O)(=O)c2ccc([N+](=O)[O-])cc2)C1 [Example 23]",
    "TARGET SYSTEM": "Human JAK1 (Homo sapiens, UniProt P23458)",
    "RESULT TYPE": "inhibition at 1 µM",
    "QUANTITATIVE RESULT": 100
  },
  {
    "MOLECULE": "CCN(c1ncnc2[nH]ccc12)[C@@H]1CCN(S(=O)(=O)c2cccc(C#N)c2)C1 [Example 34]",
    "TARGET SYSTEM": "Human JAK1 (Homo sapiens, UniProt P23458)",
    "RESULT TYPE": "inhibition at 1 µM",
    "QUANTITATIVE RESULT": 97
  },
  {
    "MOLECULE": "CN(c1ncnc2[nH]ccc12)[C@@H]1CCN(S(=O)(=O)c2ccc(C#N)cc2)C1 [Example 20]",
    "TARGET SYSTEM": "Human JAK1 (Homo sapiens, UniProt P23458)",
    "RESULT TYPE": "inhibition at 1 µM",
    "QUANTITATIVE RESULT": 97
  },
  {
    "MOLECULE": "CCCS(=O)(=O)N1CC[C@@H](N(C)c2ncnc3[nH]ccc23)C1 [Example 11]",
    "TARGET SYSTEM": "Human JAK1 (Homo sapiens, UniProt P23458)",
    "RESULT TYPE": "inhibition at 1 µM",
    "QUANTITATIVE RESULT": 95
  }
]

stdin: Write down inhibition at 1 µM measured for item N#CCC(=O)N1CCC(Oc2ncnc3[nH]ccc23)CC1 [Example 45]
stdout: 35

stdin: Write down inhibition at 1 µM measured for item CN(c1ncnc2[nH]ccc12)[C@@H]1CCN(S(=O)(=O)N2CCOCC2)C1 [Example 30]
stdout: 87

stdin: Write down inhibition at 1 µM measured for item CN(c1ncnc2[nH]ccc12)[C@@H]1CCCN(S(=O)(=O)c2cccc(C#N)c2)C1 [Example 41]
stdout: 92

stdin: Write down inhibition at 1 µM measured for item CN(c1ncnc2[nH]ccc12)[C@@H]1CCN(S(=O)(=O)c2ccccc2)C1 [Example 14]
stdout: 99

* * *

# TARGET SYSTEM: Human JAK1 (Homo sapiens, UniProt P23458)
# Construct: purchased Millipore, Germany
# PROTOCOL SUMMARY: In-vitro kinase inhibition test, JAK1
# Type: biochemical
# RUN PARAMETERS: ratio of % inhibition of JAK1 to JAK2 at 1 uM
# JAK1/JAK2 >= 2 gives true, anything below gives false

Reference set (5 entries):
[
  {
    "COMPOUND": "CN(c1ncnc2[nH]ccc12)[C@@H]1CCCN(C(=O)CC#N)C1 [Example 40]",
    "GROUP": "false"
  },
  {
    "COMPOUND": "CN(c1ncnc2[nH]ccc12)C1CCN(S(=O)(=O)c2cccc(C#N)c2)CC1 [Example 39]",
    "GROUP": "false"
  },
  {
    "COMPOUND": "CC(C)CC(=O)N1CC[C@@H](N(C)c2ncnc3[nH]ccc23)C1 [Example 5]",
    "GROUP": "true"
  },
  {
    "COMPOUND": "CN(c1ncnc2[nH]ccc12)[C@@H]1CCN(S(=O)(=O)c2cccc(F)c2)C1 [Example 16]",
    "GROUP": "false"
  },
  {
    "COMPOUND": "CN(c1ncnc2[nH]ccc12)[C@@H]1CCN(S(=O)(=O)c2ccc([N+](=O)[O-])cc2)C1 [Example 23]",
    "GROUP": "false"
  }
]

We next turn to a different compound, shown below.
stdin: Does JAK1/JAK2 meet or surpass 2 for CN(c1ncnc2[nH]ccc12)[C@@H]1CCN(S(=O)(=O)C(F)(F)F)C1 [Example 9] ?
stdout: true
